Provenance of the data: patent US11999697B2

experiment: Pharmacokinetic study, single dose by IV, IP, PO; type: in vivo, wild type B6 mice; details: B6, mouse, plasma; IP, 10 mg/kg single dose
measured_quantity: AUC(0-t) (µg·h/mL)
Report only the number, with the unit µg·h/mL understood.

*Q* Suppose we examine the molecule `CCOc1ccc(-c2ccc(-c3cc(C(=O)O)c4cc(F)ccc4n3)cc2)cc1` ; what AUC(0-t) value has been reported?
*A* 120

====

assay: Pharmacokinetic study, oral dosing at different dose levels; type: in vivo, wild type B6 mice; settings: B6, mouse, plasma, po, 50 mg/kg, oral gavage, 50 mg/kg; read-out: AUC0-6
measured_quantity: AUC(0-t) (µg·h/mL)
Report only the number, with the unit µg·h/mL understood.

*Q* Suppose we examine the compound `CCOc1ccc(-c2ccc(-c3cc(C(=O)O)c4cc(F)ccc4n3)cc2)cc1` ; what AUC(0-t) value has been reported?
*A* 333

====

Tested on: MOLM-13
Assay: MTS cell proliferation assay, MOLM-13
Format: cell-based
Conditions: Homo sapiens, 96 hours
Protocol: Triplicate wells were set up for each condition. The assays were carried out in a blinded fashion.
Recorded IC50 by entry
Report only the number, with the unit µM understood.

Cc1c(-c2ccc(-c3ccccc3F)cc2)nc2ccc(F)cc2c1C(=O)O [BQR•Na, reference compound]; 0.48
CC1=C(/C=C/C(C)=C/C=C/C(C)=C/C(=O)O)C(C)(C)CCC1 [ATRA, all-trans-retinoic acid, reference compound]; 3.06
COc1ccc(-c2ccc(-c3cc(C(=O)O)c4cc(Cl)ccc4n3)cc2)cc1; 3.02
Cc1c(-c2ccc(-c3ccc(F)cc3F)cc2)nc2c(F)cccc2c1C(=O)O; 8.63
CCOc1ccc(-c2ccc(-c3cc(C(=O)O)c4cc(F)ccc4n3)cc2)cc1; 0.4

*Q* Suppose we examine the molecule `CCOc1ccc(-c2ccc(-c3cc(C(=O)O)c4cccc(F)c4n3)cc2)cc1` ; what IC50 value has been reported?
*A* 3.42

*Q* Suppose we examine the molecule `COc1ccc(-c2ccc(-c3cc(C(=O)O)c4cccc(F)c4n3)cc2)cc1` ; what IC50 value has been reported?
*A* 6.76

*Q* Suppose we examine the molecule `O=C(O)c1cc(-c2ccc(-c3ccc(F)cc3)cc2)nc2ccc(Cl)cc12` ; what IC50 value has been reported?
*A* 6.91

*Q* Suppose we examine the molecule `Cc1c(-c2ccc(-c3ccc(F)cc3)cc2)nc2ccc(F)cc2c1C(=O)O` ; what IC50 value has been reported?
*A* 6.76

====

test: Pharmacokinetic study, oral dosing at different dose levels; type: in vivo, wild type B6 mice; details: B6, mouse, plasma; oral gavage, 50 mg/kg
measured_quantity: Cmax (µg/mL)
Report only the number, with the unit µg/mL understood.

*Q* Suppose we examine the molecule `CCOc1ccc(-c2ccc(-c3cc(C(=O)O)c4cc(F)ccc4n3)cc2)cc1` ; what Cmax value has been reported?
*A* 93.2

====

Recorded DHODH inhibition, % inhibition by entry
molecular target: DHODH (Homo sapiens, UniProt Q02127); construct: made in house; experiment: DHODH enzymatic assay (DCIP reduction); format: biochemical; details: compound concentration not given
Sequence (Q02127 whole entry): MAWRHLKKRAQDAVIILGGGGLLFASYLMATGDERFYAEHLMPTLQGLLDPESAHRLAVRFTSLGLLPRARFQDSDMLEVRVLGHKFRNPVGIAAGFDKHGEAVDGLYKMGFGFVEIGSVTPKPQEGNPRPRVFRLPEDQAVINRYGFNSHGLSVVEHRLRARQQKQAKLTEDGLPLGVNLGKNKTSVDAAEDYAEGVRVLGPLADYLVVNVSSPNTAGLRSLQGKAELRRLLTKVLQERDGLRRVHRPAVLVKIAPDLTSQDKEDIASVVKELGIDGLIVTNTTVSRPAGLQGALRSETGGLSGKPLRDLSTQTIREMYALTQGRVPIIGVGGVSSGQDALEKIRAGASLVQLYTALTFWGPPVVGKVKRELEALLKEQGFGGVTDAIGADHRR
Write the quantity with the unit trailing the number.

O=C(O)c1cc(-c2ccc(-c3ccc(C(F)(F)F)cc3)cc2)nc2ccc(-c3ccc(F)cc3)cc12 [Cpd17]; 8%
CCOc1ccc(-c2ccc(-c3cc(C(=O)O)c4cc(F)ccc4n3)cc2)cc1 [Cpd3]; 97%

*Q* Suppose we examine the compound COc1ccc(-c2ccc(-c3cc(C(=O)O)c4cc(Cl)ccc4n3)cc2)cc1 [Cpd5] ; what DHODH inhibition, % inhibition value has been reported?
*A* 95%

*Q* Suppose we examine the compound O=C(O)c1cc(-c2ccc(-c3ccc(F)cc3)cc2)nc2ccc(Cl)cc12 [Cpd6] ; what DHODH inhibition, % inhibition value has been reported?
*A* 99%
